Molecular target: human mAChR M1 (Homo sapiens, UniProt P11229)
Sequence (P11229 whole entry): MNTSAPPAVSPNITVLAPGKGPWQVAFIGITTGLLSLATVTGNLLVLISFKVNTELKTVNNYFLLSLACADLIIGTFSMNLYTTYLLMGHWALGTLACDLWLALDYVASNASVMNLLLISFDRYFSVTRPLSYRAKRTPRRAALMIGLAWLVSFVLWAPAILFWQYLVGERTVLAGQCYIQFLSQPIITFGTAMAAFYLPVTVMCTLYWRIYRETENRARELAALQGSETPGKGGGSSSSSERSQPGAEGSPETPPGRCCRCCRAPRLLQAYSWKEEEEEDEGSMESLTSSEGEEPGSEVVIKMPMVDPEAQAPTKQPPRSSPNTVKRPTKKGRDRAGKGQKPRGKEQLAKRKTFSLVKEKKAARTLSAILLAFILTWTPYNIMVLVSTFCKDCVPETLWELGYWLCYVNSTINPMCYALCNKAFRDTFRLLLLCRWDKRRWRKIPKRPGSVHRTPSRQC
Assay: mAChR M1 cell-based functional assay (calcium mobilization), PAM mode: increase in the EC20 acetylcholine response
Cut-off 80% on Emax, inclusive. At or above means yes; below means no.

For orientation, consider the following solved cases.
compound | label_class
[2H]C1([2H])c2ncccc2C(=O)N1Cc1c(C)cc(-c2cccc3nn(C([2H])([2H])[2H])cc23)cc1F (single isomer, unassigned) [Compound 156] | yes
[2H]C([2H])([2H])Oc1cc(-c2cc(F)c(CN3C(=O)c4cccnc4C3([2H])[2H])c(F)c2)c2cnn(C([2H])([2H])[2H])c2c1 [Compound 88] | no
[2H]C1([2H])c2ncccc2C(=O)N1Cc1c(F)cc(-c2ccc(C)c3nn(C)cc23)cc1F [Compound 27] | yes
[2H]C1([2H])c2ncccc2C(=O)N1Cc1ccc(-c2ccc(OC(C)COC)c3nn(C)cc23)cc1F (stereo not drawn) [Compound 143] | no
[2H]C1([2H])c2ncccc2C(=O)N1Cc1c(F)cc(-c2cccc3nn(C)cc23)cc1C1CC1 [Compound 192] | yes

Please turn your attention to the following entry.
Identify whether the reported Emax of the following compound is 80% or greater: [2H]C1([2H])c2ncccc2C(=O)N1Cc1c(Cl)cc(-c2cccc3nn(C([2H])([2H])[2H])cc23)cc1C1CC1 [Compound 220] yes
